From: PubChem BioAssay (NCI)

tested on: KM12 colon; assay: NCI tumour cell line growth inhibition, 48 h; in the data active = GI50 below about 0.43 µM; inactive = the rest
Parameter call: string, one of active, inactive

Recorded results for 6 compounds are shown here.
{"COMPOUND": "COc1ccc(C(=O)Cn2c(C(=O)c3ccccc3)nc3ccccc32)cc1", "ASSIGNED LABEL": "inactive"}
{"COMPOUND": "O=C1CCc2c(sc3[nH]c(=S)n(-c4cc(C(F)(F)F)cc(C(F)(F)F)c4)c(=O)c23)C1", "ASSIGNED LABEL": "active"}
{"COMPOUND": "CNC(=O)NCC1OC(n2cnc3c(NC(=O)Nc4ccccc4)ncnc32)C(O[Si](C)(C)C(C)(C)C)C1O[Si](C)(C)C(C)(C)C (configuration not stated)", "ASSIGNED LABEL": "inactive"}
{"COMPOUND": "C#C[C@]1(O)CC[C@H]2[C@@H]3CC=C4c5sc(Nc6cc(F)ccc6F)nc5CC[C@]4(C)[C@H]3CC[C@@]21C", "ASSIGNED LABEL": "inactive"}
{"COMPOUND": "Fc1ccc(-c2ncn(C3CCNCC3)c2-c2ccnc(Oc3ccc4c(c3)OCO4)n2)cc1", "ASSIGNED LABEL": "inactive"}
{"COMPOUND": "O=C(NCCN1CCOCC1)OCc1nc2nc(Cl)nc(N3CCOCC3)c2[nH]1", "ASSIGNED LABEL": "inactive"}

(Q) Please share the test call associated with Cc1ccc(/C=C/c2c(C(=O)/C=C/c3ccccc3)c(C)nc3ccccc23)cc1 .
(A) inactive

(Q) Now consider CCOc1ccc2c(-c3ccnc(Nc4cc(OC)cc(C(F)(F)F)c4)n3)cnn2n1 .
(A) inactive

(Q) What do we get for c1ccc(-c2nn3c(c2-c2ccnc4cc(OCCN5CCOCC5)ccc24)CCC3)nc1 ?
(A) inactive

(Q) Do the same for C/C(=C\c1ccn(-c2ccccc2N)n1)[C@@H]1C[C@@H]2O[C@]2(C)CCC[C@H](C)[C@H](O)[C@@H](C)C(=O)C(C)(C)[C@@H](O)CC(=O)O1 please
(A) active

(Q) Please do the same for CN1CCN(Cc2c[nH]c3c2C(=O)c2c(c(O)c4ccccc4c2O)C3=O)CC1 as well.
(A) inactive

(Q) Moving on to the next compound: NC(=N\N=C/c1ccc(O)cc1)/C(N)=N\N=C/c1ccc(O)cc1
(A) inactive

(Q) Param item: O=C(Oc1cccc(Cl)c1)c1ccccc1Nc1ccnc(C(F)(F)F)c1
(A) inactive

(Q) Follow-up entry: COc1ccc(-c2cc(=O)n(-c3nc4ccccc4[nH]3)[nH]2)cc1OC
(A) inactive

(Q) Same thing, different compound: O=C(CCN1CCCC1)Nc1ccc2c(NCc3ccccc3)c3ccccc3nc2c1
(A) inactive

(Q) Similarly, COc1ccc2c(c1)[n+](=O)c(C(=O)c1cccs1)c(C(F)(F)F)n2[O-] ?
(A) inactive

(Q) And then COc1ccccc1/C=C1\COc2ccc(-c3ccccc3)cc2C1=O , what is it?
(A) inactive
